Would you mind telling me the reported unfolding free energy of each entry?
B1: Subtilisin inhibitor, P01006 (parent)
chain: MRNTGAGPSPSVSRPPPSAAPLSGAALAAPGDAPSALYAPSALVLTVGKGVSATTAAPERAVTLTCAPGPSGTHPAAGSACADLAAVGGDLNALTRGEDVMCPMVYDPVLLTVDGVWQGKRVSYERVFSNECEMNAHGSSVFAF

Variants of: B1
experimental_conditions: Streptomyces albogriseolus; pH 7; 82.21 °C; Thermal; DSC; Sodium phosphate 25 mM; reversible: yes; structure 3SSI; whole UniProt chain shown
Numbers only, in kcal/mol.

Sample answers from the record:
[
  {
    "query_sequence": "MRNTGAGPSPSVSRPPPSAAPLSGAALAAPGDAPSALYAPSALVLTVGKGVSATTAAPERAVTLTCAPGPSGTHPAAGSACADLAAVGGDLNALTRGEDVMCPMVYDPVLLTVDGVWQGKRVSYERVFSNECEVNAHGSSVFAF",
    "observation_type": "unfolding free energy",
    "endpoint_value": 4.19
  },
  {
    "query_sequence": "MRNTGAGPSPSVSRPPPSAAPLSGAALAAPGDAPSALYAPSALVLTVGKGVSATTAAPERAVTLTCAPGPSGTHPAAGSACADLAAVGGDLNALTRGEDVMCPMVYDPVLLTVDGVWQGKRVSYERVFSNECEINAHGSSVFAF",
    "observation_type": "unfolding free energy",
    "endpoint_value": 4.14
  },
  {
    "query_sequence": "MRNTGAGPSPSVSRPPPSAAPLSGAALAAPGDAPSALYAPSALVLTVGKGVSATTAAPERAVTLTCAPGPSGTHPAAGSACADLAAVGGDLNALTRGEDVMCPMVYDPVLLTVDGVWQGKRVSYERVFSNECELNAHGSSVFAF",
    "observation_type": "unfolding free energy",
    "endpoint_value": 6.18
  }
]

Proceed to the following item.
unfolding free energy recorded for this variant, MRNTGAGPSPSVSRPPPSAAPLSGAALAAPGDAPSALYAPSALVLTVGKGVSATTAAPERAVTLTCAPGPSGTHPAAGSACADLAAVGGDLNALTRGEDVMCPMVYDPVLLTVDGVWQGKRVSYERVFSNECEANAHGSSVFAF , is 3.71
